- Target Or System: UniProt P08684
- Sequence (P08684 whole entry): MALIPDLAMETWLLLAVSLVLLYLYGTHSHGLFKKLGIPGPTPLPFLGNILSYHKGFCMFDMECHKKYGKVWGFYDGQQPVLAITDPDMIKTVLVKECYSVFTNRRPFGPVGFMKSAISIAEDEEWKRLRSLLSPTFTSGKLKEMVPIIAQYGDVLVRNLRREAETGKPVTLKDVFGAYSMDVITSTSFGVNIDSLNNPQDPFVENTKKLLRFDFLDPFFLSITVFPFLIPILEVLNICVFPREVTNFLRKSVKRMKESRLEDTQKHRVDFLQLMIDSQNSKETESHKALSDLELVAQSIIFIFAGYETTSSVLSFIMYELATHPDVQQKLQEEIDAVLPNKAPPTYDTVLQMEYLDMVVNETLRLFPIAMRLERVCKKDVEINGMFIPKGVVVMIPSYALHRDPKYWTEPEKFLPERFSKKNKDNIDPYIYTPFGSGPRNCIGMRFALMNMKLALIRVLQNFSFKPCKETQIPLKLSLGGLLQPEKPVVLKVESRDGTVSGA
- Procedure Details: Inhibition of human CYP3A4 at 10 uM preincubated for 10 mins followed by NADPH addition and measured after 20 mins by luciferin reagent based luminescence analysis
- Assay type: ADME
- Assay Conditions: time 30 min
Reported Metric: inhibition at 20 min, 10 µM (%)
Numbers only, in %.

Supply inhibition at 20 min, 10 µM measured with UniProt P08684 for CCC[C@@H]1NC(=O)[C@H](CC(C)C)N(C)C(=O)[C@H](CC(C)C)N(C)C(=O)CN(CCO)C(=O)[C@H](CC(C)C)N(C)C(=O)[C@@H](C)NC(=O)[C@@H](CCC(N)=O)NC(=O)[C@H](CC(C)C)N(C)C(=O)[C@H](C(C)C)NC(=O)[C@H](CC(C)C)N(C)C(=O)CN(C)C1=O .
35.5
